# targetUnderTest: Mcl-1 protein (Homo sapiens, UniProt Q07820)
# Construct: human Mcl-1 (residues 171–323); His tag (pHis-TEV vector) (N, cleaved yes); made in house; host or cells: E. coli BL21 (DE3)
# Sequence (Q07820 171-323): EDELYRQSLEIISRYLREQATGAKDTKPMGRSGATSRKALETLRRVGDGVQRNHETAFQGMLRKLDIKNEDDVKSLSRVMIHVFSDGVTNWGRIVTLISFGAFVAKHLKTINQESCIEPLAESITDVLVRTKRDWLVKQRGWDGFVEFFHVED
# method: FP-based competitive binding assay with fluorescent labelled Bid BH3 peptide
# assayConditions: competition with fluorescent Bid probe 2 nM, 20 nM Mcl-1 for purchased compounds, 10 nM for synthesized library
metricName: IC50 (nM)
Kindly answer with a numeric value in nM, unit omitted.

Some molecules with recorded IC50:
                                   molecule                           targetundertest  unitspec  resultnumber
0  CC(C)c1ccc(NC(=O)CSc2nnc(-c3ccco3)c(-c3ccco3)n2)cc1 [Compound 29]  Mcl-1 protein (Homo sapiens, UniProt Q07820)        nM          2300
1  Cc1ccc2nc(N3C(=O)C(O)=C(C(=O)c4cc5ccccc5o4)C3c3cccs3)sc2c1 (centres unmarked) [Compound 4]  Mcl-1 protein (Homo sapiens, UniProt Q07820)        nM          2400
2  O=C(CSc1nnc(-c2ccco2)c(-c2ccco2)n1)Nc1cccc(C(F)(F)F)c1 [Compound 39]  Mcl-1 protein (Homo sapiens, UniProt Q07820)        nM          5100

Challenge: # return IC50 for CCc1cccc(NC(=O)CSc2nnc(-c3ccco3)c(-c3ccco3)n2)c1 [Compound 37] , test system: Mcl-1 protein (Homo sapiens, UniProt Q07820)
Response given: 5300

Challenge: # return IC50 for c1ccc(CCCCSc2nnc(-c3ccco3)c(-c3ccco3)n2)cc1 [Compound 44] , test system: Mcl-1 protein (Homo sapiens, UniProt Q07820)
Response given: 1400

Challenge: # return IC50 for c1ccc(CCSc2nnc(-c3ccco3)c(-c3ccco3)n2)cc1 [Compound 43] , test system: Mcl-1 protein (Homo sapiens, UniProt Q07820)
Response given: 2200

Challenge: # return IC50 for O=C(CSc1nnc(-c2ccco2)c(-c2ccco2)n1)Nc1ccc(F)cc1 [Compound 34] , test system: Mcl-1 protein (Homo sapiens, UniProt Q07820)
Response given: 8100

====

# targetUnderTest: Mcl-1 protein (Homo sapiens, UniProt Q07820)
# Construct: human Mcl-1 (residues 171–323); His tag (pHis-TEV vector) (N, cleaved yes); made in house; host or cells: E. coli BL21 (DE3)
# method: FP-based competitive binding assay with fluorescent labelled Bid BH3 peptide
# assayConditions: competition with fluorescent Bid probe 2 nM, 20 nM Mcl-1 for purchased compounds, 10 nM for synthesized library
# key: entry, value: pIC50
Units for pIC50: none; it is -log10 of a concentration expressed in mol/L.

                                   compound  resultnumber
0  CCOc1ccc(C(=O)Nc2cc(NC(=O)c3ccc(OCC)c(Cl)c3)cc(C(=O)O)c2)cc1Cl [Compound 3]          5.02
1  Cc1ccc(NC(=O)c2ccc3nc(-c4ccco4)c(-c4ccco4)nc3c2)cc1 [Compound 46]          4.17
2  c1ccc(CCCSc2nnc(-c3ccco3)c(-c3ccco3)n2)cc1 [Compound 42]          5.82

Challenge: Give a short answer stating reported pIC50 for O=C(CSc1nnc(-c2ccco2)c(-c2ccco2)n1)Nc1ccc(Oc2ccccc2)cc1 [Compound 31] .
Response given: 5.16

====

# System: Eµ-myc lymphoma cells overexpressing Mcl-1
# method: Eµ-myc lymphoma cell viability, flow cytometry
# Assay type: cell-based, mice
# assayConditions: increasing concentrations, 15 h
metricName: killing of Eµ-myc cells overexpressing Mcl-1

smilesText	result
CC(C)c1cccc(NC(=O)CSc2nnc(-c3ccco3)c(-c3ccco3)n2)c1	killing
c1ccc(CCCCSc2nnc(-c3ccco3)c(-c3ccco3)n2)cc1	killing
CC(C)c1ccc(NC(=O)CSc2nnc(-c3ccco3)c(-c3ccco3)n2)cc1	killing

====

# targetUnderTest: Mcl-1 protein (Homo sapiens, UniProt Q07820)
# Construct: human Mcl-1 (residues 171–323); His tag (pHis-TEV vector) (N, cleaved yes); made in house; host or cells: E. coli BL21 (DE3)
# method: SPR-based solution competitive binding assay, immobilized biotin-labelled Bim BH3 peptide
# assayConditions: Mcl-1 20 nM; competition with immobilized Bim BH3 peptide
# key: entry, value: pIC50
Units for pIC50: none; it is -log10 of a concentration expressed in mol/L.

>>> df
                                   molecule                           targetundertest  metricname  resultnumber
0  COc1ccc(NC(=O)CSc2nnc(-c3ccco3)c(-c3ccco3)n2)cc1 [Compound 30]  Mcl-1 protein (Homo sapiens, UniProt Q07820)       pIC50          4.32

Challenge: Give a short answer stating reported pIC50 for O=C(CSc1nnc(-c2ccco2)c(-c2ccco2)n1)Nc1cccc(C(F)(F)F)c1 [Compound 39] .
Response given: 5.20

Challenge: Give a short answer stating reported pIC50 for O=C(CSc1nnc(-c2ccco2)c(-c2ccco2)n1)Nc1ccc(F)cc1 [Compound 34] .
Response given: 4.90

Challenge: Give a short answer stating reported pIC50 for CC(C)c1ccc(NC(=O)CSc2nnc(-c3ccco3)c(-c3ccco3)n2)cc1 [Compound 29] .
Response given: 4.94

Challenge: Give a short answer stating reported pIC50 for CCc1ccc(NC(=O)CSc2nnc(-c3ccco3)c(-c3ccco3)n2)cc1 [Compound 28] .
Response given: 4.84

Challenge: Give a short answer stating reported pIC50 for O=C(CSc1nnc(-c2ccco2)c(-c2ccco2)n1)Nc1ccccc1-c1ccccc1 [Compound 41] .
Response given: 5.72

Challenge: Give a short answer stating reported pIC50 for O=C(CSc1nnc(-c2ccco2)c(-c2ccco2)n1)Nc1ccc(Cc2ccccc2)cc1 [Compound 36] .
Response given: 5.38

====

# targetUnderTest: Mcl-1 protein (Homo sapiens, UniProt Q07820)
# Construct: human Mcl-1 (residues 171–323); His tag (pHis-TEV vector) (N, cleaved yes); made in house; host or cells: E. coli BL21 (DE3)
# method: TR-FRET binding assay with Bid-Dy647 peptide
# assayConditions: 10 nM Mcl-1, 10 nM Bid-Dy647
metricName: pIC50
Units for pIC50: none; it is -log10 of a concentration expressed in mol/L.

Some molecules with recorded pIC50:
>>> print(df.to_string())
                                 smilestext                           targetundertest  resultnumber
0  O=C(CSc1nnc(-c2ccco2)c(-c2ccco2)n1)Nc1cccc(-c2ccccc2)c1  Mcl-1 protein (Homo sapiens, UniProt Q07820)          5.10
1  c1ccc(CCCCSc2nnc(-c3ccco3)c(-c3ccco3)n2)cc1  Mcl-1 protein (Homo sapiens, UniProt Q07820)          5.60
2  O=C(CSc1nnc(-c2ccco2)c(-c2ccco2)n1)Nc1ccccc1-c1ccccc1  Mcl-1 protein (Homo sapiens, UniProt Q07820)          4.90

Challenge: Give a short answer stating reported pIC50 for O=C(CSc1nnc(-c2ccco2)c(-c2ccco2)n1)Nc1ccc(Cc2ccccc2)cc1 .
Response given: 5.29

Challenge: Give a short answer stating reported pIC50 for O=C(CSc1nnc(-c2ccco2)c(-c2ccco2)n1)Nc1ccc(-c2ccccc2)cc1 .
Response given: 5.30

Challenge: Give a short answer stating reported pIC50 for O=C(CSc1nnc(-c2ccco2)c(-c2ccco2)n1)Nc1ccccc1 .
Response given: 4.92

Challenge: Give a short answer stating reported pIC50 for O=C(CSc1nnc(-c2ccco2)c(-c2ccco2)n1)Nc1cccc(C(F)(F)F)c1 .
Response given: 5.15

Challenge: Give a short answer stating reported pIC50 for O=C(CSc1nnc(-c2ccco2)c(-c2ccco2)n1)Nc1ccc(F)cc1 .
Response given: 4.94

Challenge: Give a short answer stating reported pIC50 for O=C(CSc1nnc(-c2ccco2)c(-c2ccco2)n1)Nc1ccc(Oc2ccccc2)cc1 .
Response given: 5.05

Challenge: Give a short answer stating reported pIC50 for c1ccc(CCCSc2nnc(-c3ccco3)c(-c3ccco3)n2)cc1 .
Response given: 5.62

Challenge: Give a short answer stating reported pIC50 for CCc1ccc(NC(=O)CSc2nnc(-c3ccco3)c(-c3ccco3)n2)cc1 .
Response given: 5.26

Challenge: Give a short answer stating reported pIC50 for c1ccc(CCSc2nnc(-c3ccco3)c(-c3ccco3)n2)cc1 .
Response given: 5.28

====

# targetUnderTest: Mcl-1 protein (Homo sapiens)
# Construct: human Mcl-1 (residues 171–323); His tag (pHis-TEV vector) (N, cleaved yes); made in house; host or cells: E. coli BL21 (DE3)
# method: FP-based competitive binding assay with fluorescent labelled Bid BH3 peptide
# assayConditions: competition with fluorescent Bid probe 2 nM, 20 nM Mcl-1 for purchased compounds, 10 nM for synthesized library
# key: entry, value: IC50
Kindly answer with a numeric value in µM, unit omitted.

Some molecules with recorded IC50:
In [3]: df
Out[3]:
                                 smilestext               targetundertest  resultnumber
0  O=C(CSc1nnc(-c2ccco2)c(-c2ccco2)n1)Nc1ccc(-c2ccccc2)cc1  Mcl-1 protein (Homo sapiens)           2.5
1  O=C(CSc1nnc(-c2ccco2)c(-c2ccco2)n1)Nc1ccccc1-c1ccccc1  Mcl-1 protein (Homo sapiens)           4.4
2  CCc1ccc(NC(=O)CSc2nnc(-c3ccco3)c(-c3ccco3)n2)cc1  Mcl-1 protein (Homo sapiens)             5
3  CC(C)c1cccc(NC(=O)CSc2nnc(-c3ccco3)c(-c3ccco3)n2)c1  Mcl-1 protein (Homo sapiens)           2.6

Challenge: Give a short answer stating reported IC50 for O=C(CSc1nnc(-c2ccco2)c(-c2ccco2)n1)Nc1ccc(Cc2ccccc2)cc1 .
Response given: 2.5

Entry source: paper PMC6033896
